Assay: Sulcardine salts PK analysis, oral capsule administration
Type: in vivo
Settings: dog, plasma; single oral capsule administration, fasted male Beagle dogs, group average
Where a name gives a salt, the structure may show the parent alone.
Assay Endpoint: Cmax (ng/mL)
API: value field is a number in ng/mL; no unit string.

query: Consider the molecule shown here: COc1ccc(S(=O)(=O)NCc2cc(CN3CCCC3)c(O)c(CN3CCCC3)c2)cc1 [sulfate salt, Sulcardine sulfate, reference compound] What is its recorded Cmax?
result: 2820

----------
Assay: One-week stability studies (40° C./75% RH, 80° C., ambient light) by XRPD and HPLC
Type: physicochemical
Settings: one week at 80° C.; 99% before
Protocol: For all of the stability studies provided herein under the condition of 40° C. and 75% RH, samples were in an uncapped vial and stored in a stability chamber set to 40° C./75% RH. For the 80° C. studies, samples were in a sealed vial and placed in an oven set to 80° C. For the ambient light studies, the samples were in a sealed vial placed on a windowsill in the lab which was exposed to ambient natural and artificial light.
Structures can show the parent of a compound that is named as a salt.
Assay Endpoint: HPLC purity after stability experiment

Here are 3 compounds together with their reported answers.
[[record]]
compound = "COc1ccc(NS(=O)(=O)c2cc(CN3CCCC3)c(O)c(CN3CCCC3)c2)cc1.O=S(=O)(O)c1ccc2ccccc2c1"
assay_endpoint = "HPLC purity after stability experiment"
experimental_value = "90%"

[[record]]
compound = "COc1ccc(NS(=O)(=O)c2cc(CN3CCCC3)c(O)c(CN3CCCC3)c2)cc1.COc1ccc(NS(=O)(=O)c2cc(CN3CCCC3)c(O)c(CN3CCCC3)c2)cc1.O=S(=O)(O)CCS(=O)(=O)O"
assay_endpoint = "HPLC purity after stability experiment"
experimental_value = "97%"

[[record]]
compound = "COc1ccc(NS(=O)(=O)c2cc(CN3CCCC3)c(O)c(CN3CCCC3)c2)cc1.O=S(=O)(O)c1cccc2c(S(=O)(=O)O)cccc12"
assay_endpoint = "HPLC purity after stability experiment"
experimental_value = "99%"


Field: next compound
query: Given the compound COc1ccc(S(=O)(=O)NCc2cc(CN3CCCC3)c(O)c(CN3CCCC3)c2)cc1 [Example 12, sulcardine hydrochloride] , what is its reported HPLC purity after stability experiment?
result: 90%

Value source: patent US11020374B2
